System: DeltatarO mutant
ASSAY: S. aureus survival, RN4220 and DeltatarO strains – OD600, teichoic acid synthesis inhibitors, primary screen (AID 463173)
EXPERIMENTAL CONDITIONS: S. aureus RN4220 wild type/DeltatarO growth, OD600, 18 h, screened at 18.75 µg/mL (by protocol)
In all, about 52,000 compounds went through this assay and about 4,300 (8.3%) were called active. Cut-off read from the data, not from the text of the source: active = survival mostly below about 52% (no sharp cut-off); inactive = mostly above about 56%. Shown is part of a subset that was picked to be rich in actives.
Outcome (select one): active, inactive

* Cc1oc(-c2cccc(Cl)c2)nc1CN1CCC(C(=O)NC(C)c2ccccc2)CC1 (stereo unspecified) | inactive

Input line: Record request — test call for COc1cc(CN2CCc3nc(N4CCN(c5ccccc5F)CC4)ncc3C2)ccc1OC(C)C
Output line: inactive

Input line: Try O=C(Nc1cccc(Cl)c1)C(Cc1ccccc1)n1cccc1 (stereo unspecified) next.
Output line: active

Input line: Try COc1ccc(OC)c(CCNC(=O)c2csc3c2CCCCC3)c1 next.
Output line: active

Input line: Try Cc1cccc(C)c1NC(=O)c1csc2c1CCCC2 next.
Output line: inactive

Input line: Try COc1cccc(NC(=O)c2csc3c2CCCCC3)c1 next.
Output line: active

Input line: Try Cc1c(Cl)cccc1NC(=O)CSc1nc(=O)[nH]c2c1CCC2 next.
Output line: inactive

Input line: Try COc1ccc(NC(=O)c2csc3c2CCCCC3)cc1 next.
Output line: inactive

Input line: Try Cc1ccc(C)c(NC(=O)C(Cc2ccccc2)n2cccc2)c1 (stereo unspecified) next.
Output line: inactive

Input line: Try CCCc1cnc2c(c1SCC(=O)N1CCC(C)CC1)c(=O)n(C)c(=O)n2C next.
Output line: inactive

Input line: Try COc1ccc(CCNC(=O)c2csc3c2CCCCC3)c(OC)c1 next.
Output line: inactive

----------
Test system: DeltatarO mutant
ASSAY: S. aureus survival, RN4220 and DeltatarO strains – OD600, teichoic acid synthesis inhibitors, primary screen (AID 463173)
EXPERIMENTAL CONDITIONS: S. aureus RN4220 wild type/DeltatarO growth, OD600, 18 h, screened at 18.75 µg/mL (by protocol)
The whole screen tested about 52,000 compounds, of which about 4,300 (8.3%) were called active. Rule as the data show it: active = survival mostly below about 52% (no sharp cut-off); inactive = mostly above about 56%. Many of the other results were omitted from the sample, so actives are more common in it than they were.
Outcome (select one): yes (1) for active, no (0) for inactive

• O=C(CCSCc1cnn(-c2ccccc2)c1-n1cccc1)NCc1ccccc1Cl = yes (1)
• COc1ccccc1C(=O)Oc1c(Sc2ccccc2)c(C)nn1-c1ccccc1 = no (0)
• Cc1nn(-c2ccccc2)c(OC(=O)C(C)C)c1Sc1ccccc1 = no (0)
• CCCC(=O)Oc1c(Sc2ccc(C)cc2)c(C)nn1-c1ccccc1 = no (0)

Let's switch to this compound now.
Input line: Record request — test call for COc1ccc(C(=O)Oc2c(Sc3ccccc3)c(C)nn2-c2ccccc2)cc1OC
Output line: no (0)

----------
System: DeltatarO mutant
ASSAY: S. aureus survival, RN4220 and DeltatarO strains – OD600, teichoic acid synthesis inhibitors, primary screen (AID 463173)
EXPERIMENTAL CONDITIONS: S. aureus RN4220 wild type/DeltatarO growth, OD600, 18 h, screened at 18.75 µg/mL (by protocol)
About 4,300 (8.3%) of roughly 52,000 compounds were called active. No stated cut-off is given here; in the data, active means survival mostly below about 52% (no sharp cut-off); inactive means mostly above about 56%. The entries come from a sample that favours actives as a whole.
Outcome (select one): t for active, f for inactive

As a guide, the following entries are already answered.
- COc1ccc(CNC(=O)C2CCN(S(=O)(=O)c3ccc(C)cc3)CC2)cc1: t
- COc1ccc(NC(=O)C2CCCN2S(=O)(=O)c2ccc3nc(-c4ccccc4)[nH]c3c2)cc1 (stereo not given): f
- Cc1ccc(NC(=O)C2CCCN2S(=O)(=O)c2ccc3nc(-c4ccccc4)[nH]c3c2)cc1C (stereo not given): f

Input line: Record request — test call for CC(C)c1ccc(NC(=O)C2CCCN2S(=O)(=O)c2ccc3nc(-c4ccccc4)[nH]c3c2)cc1 (stereo not given)
Output line: f

Input line: Try CCc1cccc(NC(=O)C2CCCN2S(=O)(=O)c2ccc3nc(-c4ccccc4)[nH]c3c2)c1 (stereo not given) next.
Output line: t

----------
System: DeltatarO mutant
ASSAY: S. aureus survival, RN4220 and DeltatarO strains – OD600, teichoic acid synthesis inhibitors, primary screen (AID 463173)
EXPERIMENTAL CONDITIONS: S. aureus RN4220 wild type/DeltatarO growth, OD600, 18 h, hits give low values, screened at 18.75 µg/mL (by protocol)
The campaign covered roughly 52,000 compounds. About 4,300 (8.3%) were called active. The list comes from a sample in which actives are over-represented; it also holds close analogues and randomly drawn compounds.
OBSERVABLE: survival (%)
A number alone suffices; assume %.

Use these answered entries as a reference point.
• CCOc1ccc(NC(=O)CN(c2ccccc2OCC)S(=O)(=O)c2ccccc2)cc1 = 48
• Cc1ccc(-n2c(-c3ccco3)nc3c(cnn3-c3ccc(C)cc3)c2=O)cc1 = 81
• COc1ccc(N(CC(=O)NCCc2ccccc2)S(=O)(=O)c2ccccc2)c(OC)c1 = 57
• CCOc1ccc(S(=O)(=O)N(CC(=O)Nc2ccc(OC)c(Cl)c2)c2ccccc2)cc1 = 75

Input line: # get_value(readout='survival', item= CC(NC(=O)CN(c1ccc(Cl)cc1Cl)S(=O)(=O)c1ccccc1)c1ccccc1 (stereo not given) )
Output line: 37

----------
Tested on: DeltatarO mutant
ASSAY: S. aureus survival, RN4220 and DeltatarO strains – OD600, teichoic acid synthesis inhibitors, primary screen (AID 463173)
EXPERIMENTAL CONDITIONS: S. aureus RN4220 wild type/DeltatarO growth, OD600, 18 h, hits give low values, screened at 18.75 µg/mL (by protocol)
Among all 52,000 compounds or so, about 4,300 (8.3%) were called active. Many of the other results were omitted from the sample, so actives are more common in it than they were.
The entries below are paired with their reported survival.

Use these answered entries as a reference point.
- Cc1ccc(NC(=O)NCC2CCN(Cc3cccc(Cl)c3)CC2)cc1Cl: -5% (active)
- Cc1cn2c(=O)cc(COC(=O)c3cccc(NC(=O)COc4ccccc4C)c3)nc2s1: 85% (inactive)
- COc1cc(C(CC(=O)Nc2cc(C)ccn2)N2Cc3ccccc3C2=O)cc(OC)c1OC (stereo not given): 76% (inactive)

Input line: # get_value(readout='survival', item= Cc1ccc(CN2CCC(CNC(=O)Nc3ccccc3F)CC2)cc1 )
Output line: 113% (inactive)

Input line: Try Cc1nc2c3ccccc3nc(NNC(=O)CCC(=O)N3CCN(c4cccc(Cl)c4)CC3)n2n1 next.
Output line: 107% (inactive)

----------
The entries below are paired with their reported survival.
System: DeltatarO mutant
ASSAY: S. aureus survival, RN4220 and DeltatarO strains – OD600, teichoic acid synthesis inhibitors, primary screen (AID 463173)
EXPERIMENTAL CONDITIONS: S. aureus RN4220 wild type/DeltatarO growth, OD600, 18 h, hits give low values, screened at 18.75 µg/mL (by protocol)
Out of some 52,000 compounds screened, about 4,300 (8.3%) were called active. The entries come from a sample that favours actives as a whole.

Use these answered entries as a reference point.
• C=CCc1ccccc1OCCn1c(C2CC(=O)N(Cc3ccc(F)cc3)C2)nc2ccccc21 (stereo not given) = 0% (active)
• CCOCCCNC(=O)C(c1ccccc1)N1Cc2ccccc2C1=O (stereo not given) = 96% (inactive)
• Cc1cc(C)c(Cn2c(C3CC(=O)N(c4ccc(F)cc4)C3)nc3ccccc32)c(C)c1 (stereo not given) = 91% (inactive)
• Cc1ccc(C(=O)c2oc3ccccc3c2NC(=O)Cc2coc3c(C)c(C)ccc23)cc1 = 54% (inactive)
• Cc1ccc(NS(=O)(=O)c2ccc3c(c2)NC(=O)CCS3)cc1C = 79% (inactive)

// next item, survival requested
Input line: Observed survival on DeltatarO mutant for CC(C)(C)NS(=O)(=O)c1ccc2oc3ccc(S(=O)(=O)NC(C)(C)C)cc3c2c1 , please.
Output line: 86% (inactive)

----------
Tested on: DeltatarO mutant
ASSAY: S. aureus survival, RN4220 and DeltatarO strains – OD600, teichoic acid synthesis inhibitors, primary screen (AID 463173)
EXPERIMENTAL CONDITIONS: S. aureus RN4220 wild type/DeltatarO growth, OD600, 18 h, hits give low values, screened at 18.75 µg/mL (by protocol)
Hit rate of the full screen: of about 52,000 compounds, about 4,300 (8.3%) were called active. What follows is part of a selection rich in actives, with near analogues and random picks from the rest.
The entries below are paired with their reported survival.
A number alone suffices; assume %.

Use these answered entries as a reference point.
• Cc1cc(OCCn2cc(C(=O)c3ccco3)c3ccccc32)ccc1Cl = 53
• O=C(Nc1ccc(C(F)(F)F)cc1)c1cc(S(=O)(=O)NC2CCCCC2)ccc1F = 92
• Cc1ccc(OCCn2cc(C(=O)c3ccco3)c3ccccc32)cc1C = 27
• CCOc1ccc(NC(=O)c2ccc(F)c(S(=O)(=O)N(Cc3ccc(C(=O)OC)cc3)Cc3ccc(OC)c(OC)c3)c2)cc1 = 47
• O=C(Nc1ccc(Cl)cc1)c1cc(S(=O)(=O)NC2CCCCCC2)ccc1F = 90
• Cc1ccc(NC(=O)c2cc(S(=O)(=O)NC3CCCCCC3)ccc2F)cc1F = 92
• Cc1ccccc1OCCn1cc(C(=O)c2ccco2)c2ccccc21 = 44
• O=C(Nc1ccc(Br)cc1)c1ccc(F)c(S(=O)(=O)NC2CCCCCC2)c1 = 84

Input line: Observed survival on DeltatarO mutant for CCc1ccc(NC(=O)c2ccc(F)c(S(=O)(=O)N(C)C3CCCCC3)c2)cc1 , please.
Output line: 84

Input line: Try CCOc1ccc(NC(=O)c2ccc(F)c(S(=O)(=O)N(CC)Cc3ccccc3)c2)cc1 next.
Output line: 78
